experimental_parameters: acidic group
measured_metric: pKa
Form rule: numeric answer, no unit written next to it.

Some solved cases for reference:
mol_smiles: COc1ccccc1C(=O)NO
pKa: 8.9

mol_smiles: O=S1(=O)Nc2cccc3cccc1c23
pKa: 6.2

mol_smiles: CCNc1cc[nH+]c(S)n1
pKa: 3.1

mol_smiles: Oc1cc(Cl)cc(Cl)c1
pKa: 8.07

mol_smiles: Cc1ccc(Br)c(O)c(=O)c1
pKa: 6.3

Please fill in: pKa reported for CC(C)(/C=C/C(=O)[O-])c1ccccc1O = 10.7

Please fill in: pKa reported for CC(C)(C)CC#CC(=O)O = 2.54

Please fill in: pKa reported for Cc1cc(Nc2ccc([O-])cc2)c(C(C)C)cc1O = 10.7

###

experimental_parameters: acidic group
Catalogue of molecules with associated pKa
Form rule: numeric answer, no unit written next to it.

Some solved cases for reference:
mol_smiles: CC(=O)C(=O)CC(=O)C(C)=O
measurement: 4.68
--
mol_smiles: Cc1cc(C#N)cc[n+]1O
measurement: -0.67
--
mol_smiles: O=C(O)c1ccc(F)c([N+](=O)[O-])c1
measurement: 3.37
--
mol_smiles: O=C1O[C@@H]([C@@H](O)CO)C([O-])=C1O
measurement: 11.3
--
mol_smiles: Fc1cc(F)c(F)c(S)c1F
measurement: 2.75
--
mol_smiles: C[NH+](C)Cc1cc(-c2ccccc2)cc(C[NH+](C)C)c1O
measurement: 5.65
--
mol_smiles: Cc1cc(Cl)ccc1C(=O)O
measurement: 3.75
--
mol_smiles: Cc1ccc(O)c(Cc2cc([N+](=O)[O-])ccc2O)c1
measurement: 6.34
--
mol_smiles: S=c1[nH]c2ccccc2o1
measurement: 6.33
--
mol_smiles: O=C([O-])[C@@H](P)CC[C@H](P)C(=O)O
measurement: 4.41

Please fill in: pKa reported for O=C(O)c1ccc[nH]1 = 4.35

Please fill in: pKa reported for Cc1cc(C)c(C)c(C(=O)O)c1C = 3.43

Please fill in: pKa reported for N#CCC[n+]1cccc(C(N)=O)c1.[Br-] = 13.2

###

experimental_parameters: acidic group
Catalogue of molecules with associated pKa
Form rule: numeric answer, no unit written next to it.

Some solved cases for reference:
molecule: Nc1ncc2[nH]c(-c3ccccc3)nc2n1
pKa: 9.2

molecule: CN(C)C(=S)OCC(=O)O
pKa: 2.87

molecule: Cc1ccc(Cl)cc1C(=O)O
pKa: 3.63

molecule: N#CC(CCCCC(=O)O)c1ccccc1 (stereo not given)
pKa: 4.75

molecule: CCCCCCCc1c(-c2ccccc2)nn(-c2ccccc2)c1O
pKa: 8

Please fill in: pKa reported for Oc1ccccc1Br = 8.4

Please fill in: pKa reported for O=C(O)C12CCC(O)(CC1)CC2 = 6.33

Please fill in: pKa reported for CN(C)C(=S)SCC(=O)O = 3.34

###

experimental_parameters: acidic group
Records here are stratified by pKa; strata: low band (below 4), middle band (4 to below 10), high band (10 or more)

Example results:
mol_smiles: S=C(Nc1ccccc1)c1ccc(Cl)cc1
assigned_label: high band
//
mol_smiles: Oc1cn[nH+]c2ccccc12
assigned_label: low band
//
mol_smiles: O=CCCCC(=O)O
assigned_label: middle band
//
mol_smiles: NCc1nc2ccccc2[nH]1
assigned_label: high band
//
mol_smiles: Cc1cc(C)c(O)cc1C
assigned_label: high band
//
mol_smiles: Cc1nc(-c2ccccc2)oc1O
assigned_label: middle band
//
mol_smiles: O=C(O)[C@@H]1CC[C@H](C(=O)O)S1
assigned_label: low band
//
mol_smiles: Nc1ccccc1[N+](=O)[O-]
assigned_label: high band

Determine which band this compound sits in: O=S1(=O)N=CNc2cccnc21
middle band

Determine which band this compound sits in: O=C(O)[C@H](O)c1cccc([N+](=O)[O-])c1
low band

Determine which band this compound sits in: Cc1cc(C(=O)O)c(C)o1
middle band

Determine which band this compound sits in: O=C(O)c1ccc([N+](=O)[O-])cc1Cl
low band

Determine which band this compound sits in: OC[C@@H]1O[C@@H]2NC(=S)O[C@@H]2[C@H]1O
middle band

###

experimental_parameters: basic group
Records here are stratified by pKa; strata: bin 1 = under 5, bin 2 = from 5 up to 9, bin 3 = 9 and over

Example results:
molecule: Cc1ccccc1/C(N)=N/O
assigned_label: bin 1
//
molecule: CSC(=N)Nc1ccccc1
assigned_label: bin 2
//
molecule: CCSC(=O)c1ccc(Cl)cc1
assigned_label: bin 1
//
molecule: Nc1cccc(Br)c1
assigned_label: bin 1
//
molecule: Nc1ncc2[nH]c(-c3ccccc3)nc2n1
assigned_label: bin 1

Determine which band this molecule sits in: Cc1ccc2nc3c(c(N4CCOCC4)c2c1)CCC3
bin 2

Determine which band this molecule sits in: CN1C[C@@H](C(=O)[O-])C=C2c3cccc4[nH]cc(c34)C[C@@H]21
bin 2

Determine which band this molecule sits in: CC1CCCNC1 (stereo unspecified)
bin 3

Determine which band this molecule sits in: CC(C)N1CCCCC1
bin 3

Determine which band this molecule sits in: N#CCN1CCCCC1
bin 1

Determine which band this molecule sits in: c1ccc2nc3ccccc3nc2c1
bin 1

###

experimental_parameters: acidic group
Lab note: compare pKa against 10. Equal or greater, write y. Smaller, write n.

compound: COc1cccc(O)c1
assigned_label: n
--
compound: Nc1ccc(S(=O)(=O)Nc2cccnc2)cc1
assigned_label: n
--
compound: CC(=N\O)/C(CO)=N/[O-]
assigned_label: y
--
compound: Cc1cccc(O)c1C
assigned_label: y
--
compound: [O-]/N=C1\CCCCC\C1=N/O
assigned_label: y
--
compound: C=C=C(C)C(C)(C)C(=O)O
assigned_label: n
--
compound: Nc1nnnn1CC(=O)O
assigned_label: n
--
compound: CSC(C)C(=O)O (stereo not given)
assigned_label: n
--
compound: N#CC(CCCC(=O)O)c1ccccc1 (stereo not given)
assigned_label: n
--
compound: Nc1cc[nH+]c2c1ncn2CCOCP(=O)(O)O
assigned_label: n

Answer whether pKa of Nc1[nH+]c2nc[nH]c2c(N)[n+]1O is greater than or equal to 10.
n

Answer whether pKa of Cc1ccc2c(c1)C([P+](c1ccccc1)(c1ccccc1)c1ccccc1)c1ccccc1-2 (stereo not given) is greater than or equal to 10.
n

Answer whether pKa of Cc1c(Cn2cc[nH+]c2)sc2cc(C(=O)O)ccc12 is greater than or equal to 10.
n

Answer whether pKa of CC(C(=O)c1ccccc1)[n+]1ccccc1 (stereo not given) is greater than or equal to 10.
y

Answer whether pKa of C=C(OC)C(=O)O is greater than or equal to 10.
n

Answer whether pKa of CC(c1cccc(Cl)c1)[N+](=O)[O-] (stereo not given) is greater than or equal to 10.
n

Answer whether pKa of NC(=O)C(N)=S is greater than or equal to 10.
y

###

experimental_parameters: acidic group
Lab note: compare pKa against 6. Equal or greater, write Y. Smaller, write N.

Answer whether pKa of CC(C)(S)C(C(=O)O)n1cc[nH+]c1Cc1ccccc1 (configuration not stated) is greater than or equal to 6.
N

Answer whether pKa of CC(=O)CC(=O)O is greater than or equal to 6.
N

Answer whether pKa of C/C(=N\O)C(=O)c1ccccc1 is greater than or equal to 6.
Y

Answer whether pKa of O=[N+]([O-])c1ccc(O)c(C[NH+]2CCOCCOCCOCCOCC2)c1 is greater than or equal to 6.
N

Answer whether pKa of O=S(=O)(Nc1ncccn1)c1ccc(O)cc1 is greater than or equal to 6.
Y

Answer whether pKa of N#Cc1cccc(C(=O)O)c1 is greater than or equal to 6.
N

Answer whether pKa of CC(=O)/C(CN1CCOCC1)=N\O is greater than or equal to 6.
Y

Answer whether pKa of Nc1ccc(S(=O)(=O)Nc2ccn(-c3ccc([N+](=O)[O-])cc3)n2)cc1 is greater than or equal to 6.
Y

Answer whether pKa of CCCCS is greater than or equal to 6.
Y

Answer whether pKa of O=C1COC(=O)C1 is greater than or equal to 6.
N

###

Catalogue of compounds with associated pKa
experimental_parameters: acidic group
Form rule: numeric answer, no unit written next to it.

compound: [O-]c1ncnc2nc[nH]c12
pKa: 12.1
//
compound: N#CC(C#N)=C(O)c1ccc(N)cc1
pKa: 4.28

Please fill in: pKa reported for CNc1ncnc2[nH]ncc12 = 10.6

Please fill in: pKa reported for C=CCc1c(C)nn(C)c1O = 10.5

Please fill in: pKa reported for O=Cc1cc([N+](=O)[O-])cc(Br)c1O = 3.48

###

experimental_parameters: basic group
Lab note: compare pKa against 5. Equal or greater, write condition met. Smaller, write condition not met.

Example results:
molecule: c1ccc(-n2cnnn2)cc1
assigned_label: condition not met
--
molecule: OCCc1cnc(P(c2[nH]c(CCO)c[nH+]2)c2[nH]c(CCO)c[nH+]2)[nH]1
assigned_label: condition met
--
molecule: O=[Se](O)c1ccccc1
assigned_label: condition not met
--
molecule: Nc1cc([N+](=O)[O-])c2ccccc2c1
assigned_label: condition not met
--
molecule: Cc1cnnc2c(O)cccc12
assigned_label: condition not met

Answer whether pKa of CNc1ccc(O)cc1 is greater than or equal to 5.
condition met

Answer whether pKa of COc1ccc(N(C)C)cc1 is greater than or equal to 5.
condition met

Answer whether pKa of CC1CCNCC1 is greater than or equal to 5.
condition met

Answer whether pKa of c1ccc(C2=Nc3ccccc3CO2)cc1 is greater than or equal to 5.
condition not met

Answer whether pKa of COc1ccc(-c2cnc(-c3ccc([NH3+])cc3)o2)cc1 is greater than or equal to 5.
condition not met

Answer whether pKa of [O-]c1ncnc2ccccc12 is greater than or equal to 5.
condition met

Answer whether pKa of CC(C)CN(C)C is greater than or equal to 5.
condition met
